Assay: Toxicity liver stage against HepG2, at 10uM
Format: cell-based
Design: test concentration 10 uM, cell line HepG2-A16-CD81EGFP
Condition Parameters: human, HepG2-A16-CD81EGFP cells; read-out: INHIBITION
Observable: cytotoxicity at 10 µM (%)
Respond with the bare value in %.

{"Molecule": "O=C1COC2(CCN(Cc3nccs3)CC2)CN1c1ccccc1", "cytotoxicity at 10 µM, %": -114}
{"Molecule": "O=C(c1cc(-n2cnnn2)ccc1Cl)N1CCC2(CC1)OCCO2", "cytotoxicity at 10 µM, %": -1.66}
{"Molecule": "COCCN1CCC2(CC1)CC(NC(=O)CN(C)C)c1ccccc1O2 (stereo not given)", "cytotoxicity at 10 µM, %": 0.169}
{"Molecule": "NC(=O)c1cccc(NC(=O)CSc2ccc3c(c2)CCC3)c1", "cytotoxicity at 10 µM, %": 21.4}
{"Molecule": "CN1CCN(S(=O)(=O)c2cccc(S(=O)(=O)C3CCS(=O)(=O)C3)c2)CC1 (stereo not given)", "cytotoxicity at 10 µM, %": 6.29}

Quick one: cytotoxicity at 10 µM of O=C1CCCN1Cc1nnn2c1CN(c1ncccn1)CCC2 ?
-0.0499

Quick one: cytotoxicity at 10 µM of CCS(=O)(=O)NCc1cc(Br)c(OC)c(OC)c1 ?
-6.83

Quick one: cytotoxicity at 10 µM of CC(Cc1ccccn1)N(C)Cc1ccc2c(c1)CCO2 (stereo not given) ?
-0.0105

Quick one: cytotoxicity at 10 µM of N[C@@H](Cc1ccccc1)c1nnc(S(=O)(=O)Cc2ccccc2)o1 ?
13.3

Quick one: cytotoxicity at 10 µM of COCCCN1Cc2cccc(NC(=O)c3ccccc3C)c2C1 ?
13.4

Quick one: cytotoxicity at 10 µM of COc1nn(C)c2c1CCCN(C(=O)c1cccs1)C2 ?
8.36

Quick one: cytotoxicity at 10 µM of O=C(c1ccsc1)N1CCc2nnc(COc3cncnc3)n2CC1 ?
1.72

Quick one: cytotoxicity at 10 µM of CC(C)NC(=O)C1CCC2(CCN(Cc3cnn(C)c3)CC2)C1 (stereo not given) ?
2.77

Quick one: cytotoxicity at 10 µM of Cc1ccc(NS(=O)(=O)c2cc3c(c(C(=O)O)c2)OCCO3)c(F)c1 ?
-9.36

Quick one: cytotoxicity at 10 µM of CCN(Cc1cccnc1)C1CCN(c2ccccc2)C1=O (stereo not given) ?
-0.483

* * *

Assay: Toxicity liver stage against HepG2, at 10uM
Type: cell-based
Set-up: test concentration 10 uM, cell line HepG2-A16-CD81EGFP
Condition Parameters: human, HepG2-A16-CD81EGFP cells; read-out: INHIBITION
Observable: cytotoxicity at 10 µM (%)
Respond with the bare value in %.

Recorded cytotoxicity at 10 µM, per entry:
{"Compound": "CCc1csc(CNCC(=O)Nc2ccc(Cl)c(C)c2)n1", "cytotoxicity at 10 µM / %": 5.33}
{"Compound": "Cc1nn(C)cc1CNC(=O)c1cn(CCC2CCCCN2)nn1 (stereo not given)", "cytotoxicity at 10 µM / %": -6.15}
{"Compound": "O=C(c1n[nH]cc1Br)N1CCOCC1", "cytotoxicity at 10 µM / %": 5.31}
{"Compound": "COCC(=O)NCC1CCC(c2nnc(-c3ccncc3)o2)CC1 (stereo not given)", "cytotoxicity at 10 µM / %": -3.49}
{"Compound": "CC(C)Oc1cccc(-c2nc3c([nH]2)CCCNC3=O)c1", "cytotoxicity at 10 µM / %": 27.3}
{"Compound": "Cc1nnc(NCC2(c3ccccc3)CCC2)c(C#N)c1C", "cytotoxicity at 10 µM / %": 19.9}

Quick one: cytotoxicity at 10 µM of CCC1(CC)Cc2ccccc2-c2nc(NCCCO)[nH]c(=O)c21 ?
10.2

Quick one: cytotoxicity at 10 µM of Cc1nc(-c2nnc[nH]2)sc1C(=O)N1CCCC(C(F)(F)F)C1 (stereo not given) ?
7.59

Quick one: cytotoxicity at 10 µM of COCCN1CCCC2(CCC(=O)N2Cc2cccnc2)C1 (stereo not given) ?
4.32

Quick one: cytotoxicity at 10 µM of CC(C)Cc1nnc(SCC(=O)O)n1-c1ccc(F)cc1F ?
-6.13

* * *

Assay: Toxicity liver stage against HepG2, at 10uM
Type: cell-based
Parameters: test concentration 10 uM, cell line HepG2-A16-CD81EGFP
Condition Parameters: human, HepG2-A16-CD81EGFP cells; read-out: INHIBITION
List of cytotoxicity at 10 µM values.
Respond with the bare value in %.

Recorded cytotoxicity at 10 µM, per entry:
{"Compound": "CC(C)N1C(=O)CC(NC(=O)c2cc(Cl)sc2Cl)C1=O (stereo not given)", "cytotoxicity at 10 µM (%)": -2.27}
{"Compound": "COCc1nc(C(=O)NS(=O)(=O)c2cc(F)ccc2F)cs1", "cytotoxicity at 10 µM (%)": -2.22}
{"Compound": "O=C(CC1CC1)N1CCC2(CC(=O)N(c3cccc(F)c3)C2)C1 (stereo not given)", "cytotoxicity at 10 µM (%)": -148}
{"Compound": "COCCN1C(=O)CCC12CCC(NCc1cccc(C)n1)CC2 (stereo not given)", "cytotoxicity at 10 µM (%)": 9.4}

Consider the record given below.
Quick one: cytotoxicity at 10 µM of CCn1nc(C(C)C)cc1C(=O)N1CC(OCc2ccccc2F)C1 ?
-4.62

* * *

List of cytotoxicity at 10 µM values.
Assay: Toxicity liver stage against HepG2, at 10uM
Assay type: cell-based
Parameters: test concentration 10 uM, cell line HepG2-A16-CD81EGFP
Condition Parameters: human, HepG2-A16-CD81EGFP cells; read-out: INHIBITION
Respond with the bare value in %.

Recorded cytotoxicity at 10 µM, per entry:
{"Compound": "N#CC1CCCN(c2nc(-c3ccccc3)nc3c2CCNCC3)C1 (stereo not drawn)", "Unit Tag": "%", "Value Measured": -0.468}
{"Compound": "CC(=O)N[C@@H]1CN(C(=O)c2cccc(C)c2)C[C@H]1O", "Unit Tag": "%", "Value Measured": -2.48}
{"Compound": "Cc1nc2ccc(C(=O)N3CCn4c(nnc4C4CC4)C3)cc2nc1C", "Unit Tag": "%", "Value Measured": -3.22}

Consider the record given below.
Quick one: cytotoxicity at 10 µM of COCCNC(=O)[C@H]1CN(Cc2sccc2C)C[C@H]2OCC[C@@H]12 ?
2.05

* * *

Assay: Toxicity liver stage against HepG2, at 10uM
Format: cell-based
Design: test concentration 10 uM, cell line HepG2-A16-CD81EGFP
Condition Parameters: human, HepG2-A16-CD81EGFP cells; read-out: INHIBITION
List of cytotoxicity at 10 µM values.
Respond with the bare value in %.

Recorded cytotoxicity at 10 µM, per entry:
{"Input Smiles": "CNC(=O)c1cnc2n1CCN(Cc1cccnc1OC)C2", "cytotoxicity at 10 µM [%]": 8.91}
{"Input Smiles": "CNc1ncc(CN(C)C(=O)c2cccc(-n3cccn3)c2)cn1", "cytotoxicity at 10 µM [%]": -2.38}
{"Input Smiles": "Cn1cc(S(=O)(=O)Nc2ccc(Cl)cn2)cc1C(N)=O", "cytotoxicity at 10 µM [%]": -1.7}
{"Input Smiles": "NC(=O)C1CCN(C(=O)CCSCc2ccccc2)CC1", "cytotoxicity at 10 µM [%]": 4.22}
{"Input Smiles": "O=C(c1cccs1)N1CC[C@H]2C[C@@H](c3nnc(C4CC4)o3)O[C@@H]2C1", "cytotoxicity at 10 µM [%]": -109}

Quick one: cytotoxicity at 10 µM of COCCn1/c(=N\C(=O)CN(C)S(C)(=O)=O)sc2cc(OC)ccc21 ?
-7.93

* * *

Assay: Toxicity liver stage against HepG2, at 10uM
Type: cell-based
Parameters: test concentration 10 uM, cell line HepG2-A16-CD81EGFP
Condition Parameters: human, HepG2-A16-CD81EGFP cells; read-out: INHIBITION
Observable: cytotoxicity at 10 µM (%)
Respond with the bare value in %.

{"Compound": "CC(C)c1nnc(NC(=O)N2CCN(C)CC2c2ccccc2)s1 (stereo not drawn)", "Value Measured": -11.6}

Quick one: cytotoxicity at 10 µM of CNS(=O)(=O)CC(=O)NC(c1cc(C)sc1C)C(C)C (stereo not drawn) ?
0.918

Quick one: cytotoxicity at 10 µM of Cc1noc(C)c1CN1CCCC2(C1)CN(Cc1nccn1C)CCO2 (stereo not drawn) ?
7.69

Quick one: cytotoxicity at 10 µM of CC(=O)N1CCN(C(=O)c2cccc(OCc3cscn3)c2)CC1 ?
-7.57

Quick one: cytotoxicity at 10 µM of Cn1cc(CC(=O)N2CCCC(c3ccn[nH]3)C2)cn1 (stereo not drawn) ?
-4.89

Quick one: cytotoxicity at 10 µM of O=C(NCc1cnc2n1CCN(c1ncc(F)cn1)CC2)C1CCC1 ?
-0.881

Quick one: cytotoxicity at 10 µM of COCCN(Cc1sccc1C)Cc1nccn1CCOC ?
2.33

Quick one: cytotoxicity at 10 µM of CN(C)c1ccc(CC(=O)N[C@@H]2CCNC[C@H]2O)cc1 ?
-7.82

Quick one: cytotoxicity at 10 µM of Cc1cnc(NC(=O)c2cccc(CN(C)Cc3ccno3)c2)s1 ?
61.3

Quick one: cytotoxicity at 10 µM of CCN(Cc1nnsc1Cl)C(C)c1ccc(C#N)cc1 (stereo not drawn) ?
18.9

Quick one: cytotoxicity at 10 µM of COc1ccc(-n2nnnc2C(C)(C)Nc2ccc(C)cc2C)cc1 ?
52.4

Quick one: cytotoxicity at 10 µM of Cc1ccc(-c2cccc(CC3(C(=O)O)CCOCC3)c2)c(C)c1 ?
-29.8

Quick one: cytotoxicity at 10 µM of O=C(NCCc1coc(-c2ccc(F)cc2)n1)NC1CCC(O)CC1 (stereo not drawn) ?
7.96

Quick one: cytotoxicity at 10 µM of CCc1sc(-c2nnc(CNC(C)Cn3cc(C)cn3)o2)cc1C (stereo not drawn) ?
0.493

Quick one: cytotoxicity at 10 µM of c1ccc(OCCN2CCN(c3ncnc4[nH]ccc34)CC2)cc1 ?
8.64

Quick one: cytotoxicity at 10 µM of CSCC[C@H](NC(=O)CCn1ccc2c(Br)cccc21)C(=O)O ?
0.633

Quick one: cytotoxicity at 10 µM of CN(C)c1ncc(CN2CCOC(C(=O)Nc3ccccc3)C2)cn1 (stereo not drawn) ?
-3.14

Quick one: cytotoxicity at 10 µM of O=C(c1n[nH]cc1Cl)N1CCSCC1 ?
4.51
